// provenance: ChEMBL document CHEMBL2218924

TARGET_SYSTEM: Inhibitor of nuclear factor kappa-B kinase subunit beta (Homo sapiens) (UniProt O14920)
Sequence (whole entry): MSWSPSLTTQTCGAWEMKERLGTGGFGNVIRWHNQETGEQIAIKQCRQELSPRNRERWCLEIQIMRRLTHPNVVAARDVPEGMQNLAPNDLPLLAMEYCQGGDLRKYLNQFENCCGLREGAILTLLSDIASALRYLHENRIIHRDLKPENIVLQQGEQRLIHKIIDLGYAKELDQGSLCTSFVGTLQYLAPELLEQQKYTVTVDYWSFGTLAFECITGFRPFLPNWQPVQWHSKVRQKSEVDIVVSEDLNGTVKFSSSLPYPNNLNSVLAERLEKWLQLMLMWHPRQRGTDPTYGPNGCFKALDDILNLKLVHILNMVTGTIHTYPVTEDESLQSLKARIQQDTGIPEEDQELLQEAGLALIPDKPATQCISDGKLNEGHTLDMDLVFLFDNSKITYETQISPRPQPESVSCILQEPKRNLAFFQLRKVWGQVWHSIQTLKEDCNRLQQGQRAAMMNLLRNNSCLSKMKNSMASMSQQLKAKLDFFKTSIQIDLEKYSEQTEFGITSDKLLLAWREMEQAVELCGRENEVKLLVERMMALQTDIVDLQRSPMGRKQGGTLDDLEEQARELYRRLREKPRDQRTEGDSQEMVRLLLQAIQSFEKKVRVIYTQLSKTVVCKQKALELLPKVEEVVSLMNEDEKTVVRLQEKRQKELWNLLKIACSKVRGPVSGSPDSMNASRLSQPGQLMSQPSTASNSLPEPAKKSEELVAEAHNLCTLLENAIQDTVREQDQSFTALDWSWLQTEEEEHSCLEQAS
REPORTED_CONDITIONS: at 10 µM
Reported residual activity is given for each of the following compounds.
The answer is to be given in %; state only the numeric part.

- COMPOUND: "COc1ccc2c(c1)/C(=C/c1cnc[nH]1)C(=O)N2"
  TARGET_SYSTEM: "Inhibitor of nuclear factor kappa-B kinase subunit beta (Homo sapiens) (UniProt O14920)"
  residual activity (%): 59

response.value for C[S+]([O-])c1ccc(-c2nc(-c3ccc(F)cc3)c(-c3ccncc3)[nH]2)cc1 (stereo unspecified) (field: residual activity) = 101

Consider "CC(C)(C)c1cc(C=C(C#N)C#N)cc(Br)c1O" . Its measured residual activity is 99

Looking up "O=C1Nc2ccc3ncsc3c2/C1=C/c1c[nH]cn1" , I see its residual activity listed as 25

Lab note: measured residual activity of "COc1ccc2c(c[n+](C)c3c4cc5c(cc4ccc23)OCO5)c1OC" was 84

Item: "COC(=O)[C@@]1(O)C[C@H]2O[C@]1(C)n1c3ccccc3c3c4c(c5c6ccccc6n2c5c31)C(=O)NC4" | residual activity: 3
